- study target: T1, monkey MSLN full-length protein (NCBI: XP_028696439.1) expressed on HEK293T-monkey MSLN cells (monkey)
- T1 construct: Whole encoded precursor
- T1 chain: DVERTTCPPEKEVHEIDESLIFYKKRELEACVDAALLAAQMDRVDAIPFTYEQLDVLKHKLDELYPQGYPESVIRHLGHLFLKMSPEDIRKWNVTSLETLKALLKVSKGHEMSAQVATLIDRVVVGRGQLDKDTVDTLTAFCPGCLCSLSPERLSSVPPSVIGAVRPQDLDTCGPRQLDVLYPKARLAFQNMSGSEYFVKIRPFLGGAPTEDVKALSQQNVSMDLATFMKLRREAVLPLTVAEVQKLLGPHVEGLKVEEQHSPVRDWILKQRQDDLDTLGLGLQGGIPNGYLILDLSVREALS
- procedure details: FACS on HEK293T-monkey MSLN cells;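 also: flow cytometry binding of chimeric antibodies to the cells, with a 2 h incubation on ice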
Entries and their measured Maximum mean fluorescence intensity follow.
Reply with just the number.

Consider the following illustrative entries.
QUERY: Look at this binder and give its reported Maximum mean fluorescence intensity. S009-F7.65.13 (antibody, human IgG1, kappa, V domains shown, human-murine chimeric antibody, human IgG1/kappa constant regions) VH: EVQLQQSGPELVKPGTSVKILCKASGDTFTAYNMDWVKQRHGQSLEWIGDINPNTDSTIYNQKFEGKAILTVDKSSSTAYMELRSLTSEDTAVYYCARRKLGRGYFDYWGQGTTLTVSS VL: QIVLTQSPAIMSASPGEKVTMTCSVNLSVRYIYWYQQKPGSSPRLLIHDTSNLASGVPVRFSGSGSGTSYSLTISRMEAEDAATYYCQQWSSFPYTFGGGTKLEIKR
RESULT: 50200

QUERY: For the binder shown here, S009-F7.30.5 (antibody, human IgG1, kappa, V domains shown, human-murine chimeric antibody, human IgG1/kappa constant regions) VH: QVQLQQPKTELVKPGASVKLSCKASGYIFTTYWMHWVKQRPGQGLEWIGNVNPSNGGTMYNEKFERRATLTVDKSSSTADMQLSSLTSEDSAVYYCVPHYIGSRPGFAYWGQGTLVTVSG VL: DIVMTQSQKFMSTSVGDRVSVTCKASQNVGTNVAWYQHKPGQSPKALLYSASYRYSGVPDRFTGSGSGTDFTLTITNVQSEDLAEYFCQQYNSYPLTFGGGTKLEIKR , give the reported Maximum mean fluorescence intensity.
RESULT: 47400

Now for another entry.
QUERY: Form field: reported Maximum mean fluorescence intensity of S009-F7.25.19 (antibody, human IgG1, kappa, V domains shown, human-murine chimeric antibody, human IgG1/kappa constant regions) VH: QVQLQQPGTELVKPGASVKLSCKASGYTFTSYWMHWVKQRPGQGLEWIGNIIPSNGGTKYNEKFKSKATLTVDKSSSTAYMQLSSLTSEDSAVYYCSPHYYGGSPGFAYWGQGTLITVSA VL: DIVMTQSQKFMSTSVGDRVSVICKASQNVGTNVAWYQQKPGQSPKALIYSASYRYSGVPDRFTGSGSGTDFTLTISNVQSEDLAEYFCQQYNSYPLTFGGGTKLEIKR
RESULT: 43200
